# Test Target: UniProtKB P42338
# Assay Text: PI3-Kinase alpha/beta Inhibition
Measured Quantity: IC50 (µM)

(a) O=c1cc(N2CCOCC2)oc2cc(OCc3cccnc3)ccc12
(b) Cc1cc(Nc2ccncc2)c2nc(N3CCOCC3)cc(=O)n2c1
(c) Cc1c(OCc2ccccc2)ccc2c(=O)cc(N3CCOCC3)oc12
q: Order by IC50, smallest first, the items presented above. Put the labels in the requested order and write them down.
a: b, a, c

(1) Cc1cc(NCc2ccccc2Cl)c2nc(N3CCOCC3)cc(=O)n2c1
(2) Cc1cc(Nc2ccc(Cl)cc2)c2nc(N3CCOCC3)cc(=O)n2c1
(3) O=c1cc(N2CCOCC2)oc2c(Cc3ccccc3)cccc12
(4) O=c1cc(N2CCOCC2)[nH]c2c(Cc3ccccc3)cccc12
(5) Cc1cc(Nc2ccccc2O)c2nc(N3CCOCC3)cc(=O)n2c1
q: Order the records by IC50, with each subsequent value no larger than the one before. Put the labels in the requested order and write them down.
a: 4, 2, 5, 3, 1
(4: 2 µM, 2: 1 µM, 5: 0.2 µM, 3: 0.1 µM, 1: 0.05 µM)

(a) O=c1cc(N2CCOCC2)[nH]c2c(Cc3ccc(F)cc3)cccc12
(b) O=c1cc(N2CCOCC2)[nH]c2c(Sc3ccccc3)cccc12
(c) O=c1cc(N2CCOCC2)nc2c(Cc3ccccc3)cccn12
(d) O=c1cc(N2CCOCC2)nc2c(OCc3ccccc3)cccn12
q: Order the records by IC50, with each subsequent value no larger than the one before. Put the labels in the requested order and write them down.
a: c, a, d, b
(c: 1.5 µM, a: 1 µM, d: 0.5 µM, b: 0.05 µM)

* * *

# Test Target: PIK3CB;PIK3CA (UniProt P42338)
# Assay Text: PI3-Kinase alpha/beta Inhibition
pIC50: −log10 of the molar value.
Measured Quantity: pIC50

Please review the entries below; each comes with its answer.
{"Smiles Repr": "Cc1ccccc1-c1cccc2c(=O)cc(N3CCOCC3)oc12", "Result": 5.70}
{"Smiles Repr": "O=c1cc(N2CCOCC2)nc2c(OCc3cccc(Cl)c3)cccn12", "Result": 6.30}
{"Smiles Repr": "Cc1cc(N[C@H](C)c2ccccc2)c2nc(N3CCOCC3)cc(=O)n2c1", "Result": 6.70}
{"Smiles Repr": "O=c1cc(N2CCOCC2)[nH]c2c(OCc3ccccc3)cccc12", "Result": 7.00}

(a) Cc1cc(Nc2ccccc2C(F)(F)F)c2nc(N3CCOCC3)cc(=O)n2c1
(b) O=c1cc(N2CCOCC2)nc2c(OCc3cccnc3)cccn12
q: Pick one, a or b : lowest reported pIC50. Return value: the label identifying the chosen record.
a: b
(b: 5.00, a: 5.30)

(I) Cc1cc(NCc2ccncc2)c2nc(N3CCOCC3)cc(=O)n2c1
(II) O=c1cc(N2CCOCC2)[nH]c2c(Oc3ccc(F)cc3)cccc12
q: Pick one, I or II : lowest reported pIC50. Return value: the label identifying the chosen record.
a: I
(I: 6.30, II: 7.30)

(A) O=c1cc(N2CCOCC2)oc2c(-c3ccccc3Cl)cccc12
(B) Cc1ccc(S(=O)(=O)Oc2cccc3c(=O)cc(N4CCOCC4)[nH]c23)cc1
q: Pick one, A or B : lowest reported pIC50. Return value: the label identifying the chosen record.
a: B
